molecular target: T1, human IL-6 (human, UniProt P05231 30-212); assay: SPR (Biacore T200), antibody from cell supernatant captured on Protein A, IL-6 flowed over, 37 C
T1 construct: also called interleukin-6
T1 sequence (P05231 30-212 limits assumed): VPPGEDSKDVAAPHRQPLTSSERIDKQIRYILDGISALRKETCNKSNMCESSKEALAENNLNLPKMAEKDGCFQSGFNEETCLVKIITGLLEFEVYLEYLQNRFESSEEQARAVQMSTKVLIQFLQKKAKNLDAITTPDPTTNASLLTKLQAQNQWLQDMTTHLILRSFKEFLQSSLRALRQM
Measured Kd values are reported for all entries that follow.

{"columns": ["binder", "Kd [nM]"],
 "data": [
  ["anti-IL-6 antibody, heavy chain G66D / light chain WT (antibody, human IgG1, V domains shown, Derived as m2; Engineered human IgG1) VH: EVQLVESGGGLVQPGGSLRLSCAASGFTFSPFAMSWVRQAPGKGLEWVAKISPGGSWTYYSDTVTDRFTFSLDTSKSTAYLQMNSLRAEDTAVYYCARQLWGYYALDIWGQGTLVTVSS VL: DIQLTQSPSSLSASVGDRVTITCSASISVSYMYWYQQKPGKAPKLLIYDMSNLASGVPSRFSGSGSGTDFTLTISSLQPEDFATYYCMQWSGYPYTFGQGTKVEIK", 0.215],
  ["anti-IL-6 antibody, heavy chain S35Q, G66D / light chain WT (antibody, human IgG1, V domains shown, Derived as m2; Engineered human IgG1) VH: EVQLVESGGGLVQPGGSLRLSCAASGFTFSPFAMQWVRQAPGKGLEWVAKISPGGSWTYYSDTVTDRFTFSLDTSKSTAYLQMNSLRAEDTAVYYCARQLWGYYALDIWGQGTLVTVSS VL: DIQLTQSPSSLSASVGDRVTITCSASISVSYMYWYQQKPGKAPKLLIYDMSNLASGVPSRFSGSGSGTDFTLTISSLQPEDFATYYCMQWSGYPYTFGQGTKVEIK", 0.302],
  ["anti-IL-6 antibody, heavy chain I51L, G66D / light chain WT (antibody, human IgG1, V domains shown, Derived as m2; Engineered human IgG1) VH: EVQLVESGGGLVQPGGSLRLSCAASGFTFSPFAMSWVRQAPGKGLEWVAKLSPGGSWTYYSDTVTDRFTFSLDTSKSTAYLQMNSLRAEDTAVYYCARQLWGYYALDIWGQGTLVTVSS VL: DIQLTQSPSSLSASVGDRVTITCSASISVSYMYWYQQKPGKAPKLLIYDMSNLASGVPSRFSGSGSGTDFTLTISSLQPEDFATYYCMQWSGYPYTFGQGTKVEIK", 0.386]
]}

These data points were gathered from patent US20240368267A1.
